system_name: CRF1R
protocol_description: cell-based or functional assay
Ends that are not written are not given here.
quantity_kind: CRF1R EC50

>>> result("ZGPPISIDLPTYLLRKMIEIEKQEKEKQQAANNRLLLDTI (C-terminal amide) [SEQ ID NO 70]")
"> 100 nM"
>>> result("ZGPPISIDLPLQLLRKMIEIEKQEKEKQQAANNRLLLDTI (C-terminal amide) [SEQ ID NO 80]")
"> 100 nM"
>>> result("IVLSLDVPIGLLQILLEQTKARAAREQATTNARILARV-NH2 [SEQ ID NO 117]")
"100 nM"
>>> result("DNPSLSIDLPLLLLRTLLELARTQSQRERAEQNAIIFASV-NH2 [SEQ ID NO 174]")
"1000 nM"
>>> result("ZGPPISIDLPFQLLRKMIEIEKQEKEKQQATTNRLLLDRV (C-terminal amide) [SEQ ID NO 18]")
"106 nM"
>>> result("ZGPPISIDLPYQLLRKMIEIEKQEKEKQQAANNRLLLDTI (C-terminal amide) [SEQ ID NO 202]")
"404 nM"
>>> result("IVLSLDVPIGLLQILLEQARAAAREQATTNARILARV-NH2 [SEQ ID NO 141]")
"> 100 nM"
>>> result("IVLSLDVPIGLLQILLEQAAAAREQATTNARILARV-NH2 [SEQ ID NO 134]")
"> 100 nM"
>>> result("ZGPPISIDLPFHLLRKMIEIEKQEKEKQQATTNARILARV (C-terminal amide) [SEQ ID NO 146]")
"103 nM"
>>> result("DNPSLSIDLPLILLRTLLELARTQSQRERAEQNAIIFASV-NH2 [SEQ ID NO 175]")
"1000 nM"
>>> result("ZGPPISIDLPFVLLRKMIEIEKQEKEKQQAANNRLLLDTI (C-terminal amide) [SEQ ID NO 190]")
"> 100 nM"
>>> result("ZGPPISIDLPIHLLRKMIEIEKQEKEKQQAANNRLLLDTI (C-terminal amide) [SEQ ID NO 77]")
"> 100 nM"
